Where a name gives a salt, the structure may show the parent alone.
Here, each record is paired with measured melting point data.
Entry rule: numbers only, all in °C.

1. Cl.NS(=O)(=O)c1ccc(-n2nc(C(F)(F)F)c(Cl)c2-c2ccc(-c3cscn3)cc2)cn1 :: 157

Now look at this entry.
# compound NS(=O)(=O)c1ccc(-n2nc(C(F)(F)F)cc2-c2ccc(-c3ncco3)c(Cl)c2)cn1 (as salt: hydrochloride) ; its melting point = 156

---

Some compounds, each annotated with its measured melting point.
Express your answer in °C, writing the number without its unit.

1. Cl.NS(=O)(=O)c1ccc(-n2nc(C(F)(F)F)c(F)c2-c2ccc(-c3cscn3)cc2)cn1 :: 145

Sample CCc1c(-c2ccc(-c3cscn3)cc2)c(C(F)(F)F)nn1-c1ccc(S(N)(=O)=O)nc1.Cl ; melting point observed: 141

Reported melting point ( CCc1c(C(F)(F)F)nn(-c2ccc(S(N)(=O)=O)nc2)c1-c1ccc(-c2cncs2)cc1.Cl ) = 169

---

measurement type: melting point (°C)
Give just the number in °C; leave the unit off.

// worked examples, melting point included
1. Cl.NS(=O)(=O)c1ccc(-n2nc(C(F)(F)F)cc2-c2ccc(-c3cncs3)cc2)cn1 :: 138
2. Cl.NS(=O)(=O)c1ccc(-n2nc(C(F)(F)F)cc2-c2ccc(-c3cscn3)cc2)cn1 :: 121

Looking up NS(=O)(=O)c1ccc(-n2nc(C(F)(F)F)cc2-c2ccc(-c3cscn3)c(C(F)(F)F)c2)cn1 , I see its melting point listed as 114
